System: MDA-MB-231 breast
Experiment: NCI tumour cell line growth inhibition, 48 h
Reported values of TGI for individual entries
propertyLabel: TGI (µM)

[
  {
    "compound": "COI1NC(=O)c2ccccc21",
    "measurementUnit": "µM",
    "valueOperator": ">",
    "resultValue": 100
  },
  {
    "compound": "CCOC(=O)c1ccc(NCC#CCN2CCCCC2)cc1",
    "measurementUnit": "µM",
    "valueOperator": ">",
    "resultValue": 100
  },
  {
    "compound": "N[C@H]1CCCC[C@@H]1N1C(=O)c2ccccc2C1(O)c1ccc(Cl)cc1 (stereo partly specified)",
    "measurementUnit": "µM",
    "valueOperator": "=",
    "resultValue": 27.5
  },
  {
    "compound": "O=C1Oc2cc(O)cc(/C=C/c3ccc(O)cc3)c2[C@@]12c1c(O)cc(O)cc1OC2c1cccc(O)c1 (stereo partly specified)",
    "measurementUnit": "µM",
    "valueOperator": "=",
    "resultValue": 95.9
  },
  {
    "compound": "NC(N)=Nc1ccc(CC(N)C(=O)O)cc1 (stereo unspecified)",
    "measurementUnit": "µM",
    "valueOperator": ">",
    "resultValue": 12.5
  },
  {
    "compound": "NC(=S)N/N=C\\c1nccc2ccccc12",
    "measurementUnit": "µM",
    "valueOperator": "=",
    "resultValue": 35.7
  }
]

###

Tested on: HCT-116 colon
Test: NCI tumour cell line growth inhibition, 48 h; in the data active = GI50 below about 0.43 µM; inactive = the rest
Outcomes: label 1 (active), label 0 (inactive)

[
  {
    "itemSmiles": "N#C/C(=C\\c1ccc(Br)cc1)n1nnc2ccc(F)cc21",
    "qualitativeLabel": "label 0"
  },
  {
    "itemSmiles": "CCN(CC)c1ccc(C(=O)c2ccc(N(CC)CC)cc2)cc1",
    "qualitativeLabel": "label 0"
  },
  {
    "itemSmiles": "Cc1ncc(C(=O)Nc2ccc(CN3CCN(C)CC3)c(C(F)(F)F)c2)cc1C#Cc1cnc(N)cc1C#N",
    "qualitativeLabel": "label 1"
  },
  {
    "itemSmiles": "C#CCOc1cccc(Nc2ncnc3cc(NC(=O)CCl)ccc23)c1",
    "qualitativeLabel": "label 0"
  },
  {
    "itemSmiles": "COc1cc(-c2nc(SCCC(C)C)nc(Nc3ccc(S(N)(=O)=O)cc3)c2C#N)cc(OC)c1OC",
    "qualitativeLabel": "label 0"
  },
  {
    "itemSmiles": "CCOC(=O)c1c2c(n3ccccc13)C(=O)c1ncccc1C2=O",
    "qualitativeLabel": "label 1"
  },
  {
    "itemSmiles": "Cc1cc(N2CCOCC2)cc2[nH]c(-c3c(NC[C@@H](O)c4cccc(Cl)c4)cc[nH]c3=O)nc12",
    "qualitativeLabel": "label 0"
  },
  {
    "itemSmiles": "O=C(/C=C/c1ccc(C(F)(F)F)cc1)c1ccc(Nc2nc(NCCO)nc(Nc3ccc(Cl)cc3)n2)cc1",
    "qualitativeLabel": "label 0"
  },
  {
    "itemSmiles": "O=C(OC[C@H]1O[C@H](OC(=O)c2cc(O)c(O)c(OC(=O)c3cc(O)c(O)c(O)c3)c2)[C@H](OC(=O)c2cc(O)c(O)c(OC(=O)c3cc(O)c(O)c(O)c3)c2)[C@@H](OC(=O)c2cc(O)c(O)c(OC(=O)c3cc(O)c(O)c(O)c3)c2)[C@@H]1OC(=O)c1cc(O)c(O)c(OC(=O)c2cc(O)c(O)c(O)c2)c1)c1cc(O)c(O)c(OC(=O)c2cc(O)c(O)c(O)c2)c1",
    "qualitativeLabel": "label 0"
  }
]
